# credit: ChEMBL document CHEMBL1143568

- Organism: Cavia porcellus
- test: Negative inotropic potency is determined by decrease in the developed tension on isolated left ventricular papillary muscle (n=5-7)
- condition-label: Muscle tissue
attribute-measured: EC50 (nM)
Value expressed in nM; do not type the unit.

// lookup EC50 for COc1ccc([C@@H]2Sc3ccccc3N(CCN(C)C)C(=O)[C@@H]2OC(C)=O)cc1 [DILTIAZEM]
1610

* * *

- Species: Cavia porcellus
- test: Negative chronotropic activity was determined as percent decrease in the artial rate in spontaneously beating guinea pig artium at 5x10E-5 M (n=6-8)
attribute-measured: Decrease (%)
Please respond with the number in % and leave the unit unwritten.

Some entries whose results are on file:
>>> experimental_result("CC1=CSC(OCC(C)C)(c2ccc(Br)cc2)c2noc(=O)n21 (centres undefined)")
11
>>> experimental_result("CCCCCCCC/C=C\\CCCCCCCCO[C@@]1(c2ccc(Cl)cc2)SC=C(C)n2c1noc2=O")
14
>>> experimental_result("CC1=CS[C@@](OCC2CCCCC2)(c2ccc(Cl)cc2)c2noc(=O)n21")
5

Which Decrease reading was recorded for the compound CC/C=C/COC1(c2ccc(Cl)cc2)SC=C(C)n2c1noc2=O (centres undefined) ?
8

Requested field: Decrease. Item: CCCCCCCCCCCCO[C@@]1(c2ccc(Br)cc2)SC=C(C)n2c1noc2=O
16

For CCCCCCCCCCCCCCCCCCO[C@@]1(c2ccc(Br)cc2)SC=C(C)n2c1noc2=O , what is its reported Decrease?
5

Look at this compound and give its reported Decrease. CCCCCCOC1(c2ccc(Cl)cc2)SC=C(C)n2c1noc2=O (centres undefined)
10

Suppose we examine the compound CC/C=C\COC1(c2ccc(Cl)cc2)SC=C(C)n2c1noc2=O (centres undefined) ; what Decrease value has been reported?
5

* * *

- Species on record: Cavia porcellus
- test: Negative chronotropic activity was determined as percent decrease in the artial rate in spontaneously beating guinea pig artium at 5x10E-5 M (n=6-8)
Kindly return yes (1) if reported Decrease is no lower than 10%; return no (0) if it is lower.

>>> class_label("CCCCOC1(c2ccc(Cl)cc2)SC=C(C)n2c1noc2=O (stereo unspecified)")
"no (0)"
>>> class_label("CC1=CS[C@@](O)(c2ccc(Cl)cc2)c2noc(=O)n21")
"yes (1)"
>>> class_label("CCCCCCCCCCCCCCCOC1(c2ccc(Cl)cc2)SC=C(C)n2c1noc2=O (stereo unspecified)")
"no (0)"
>>> class_label("CC1=CS[C@@](OCC2CCCCC2)(c2ccc(Br)cc2)c2noc(=O)n21")
"no (0)"
>>> class_label("CCO[C@@]1(c2ccc(Cl)cc2)SC=C(C)n2c1noc2=O")
"yes (1)"

Reported Decrease reaches at least 10% for CCCCCCCCCCCCCCCO[C@@]1(c2ccc(Br)cc2)SC=C(C)n2c1noc2=O ?
yes (1)

* * *

Documented Decrease across a set of molecules
- Species: Cavia porcellus
- test: Negative chronotropic activity was determined as percent decrease in the artial rate in spontaneously beating guinea pig artium at 5x10E-5 M (n=6-8)
Lab book: enter the figure in %, no units written.

What value of Decrease has been recorded for this entry: CC1=CSC(OCc2ccccc2)(c2ccc(Br)cc2)c2noc(=O)n21 (stereo unspecified)
4

I have this molecule here, CCCOC1(c2ccc(Cl)cc2)SC=C(C)n2c1noc2=O (stereo unspecified) , and I need its recorded Decrease.
7

May I ask what Decrease has been recorded for CC1=CSC(OCC(C)C)(c2ccc(Cl)cc2)c2noc(=O)n21 (stereo unspecified) ?
15

What does the data say about its Decrease? Entry: CCCCCCCC/C=C\CCCCCCCCO[C@@]1(c2ccc(Br)cc2)SC=C(C)n2c1noc2=O
9

Entry CCCCCCCCCO[C@@]1(c2ccc(Br)cc2)SC=C(C)n2c1noc2=O has what Decrease?
7

For the molecule COc1ccc([C@@H]2Sc3ccccc3N(CCN(C)C)C(=O)[C@@H]2OC(C)=O)cc1 , what Decrease is on record?
94

# lookup: Decrease of CCCCCCOC1(c2ccc(Br)cc2)SC=C(C)n2c1noc2=O (stereo unspecified)
9

Name the reported Decrease value associated with the molecule COC1(c2ccc(Cl)cc2)SC=C(C)n2c1noc2=O (stereo unspecified)
22

Using the record for CC/C=C\COC1(c2ccc(Br)cc2)SC=C(C)n2c1noc2=O (stereo unspecified) , report its Decrease.
20

May I ask what Decrease has been recorded for CCCCOC1(c2ccc(Br)cc2)SC=C(C)n2c1noc2=O (stereo unspecified) ?
18

Which Decrease is reported for this molecule? CC1=CS[C@@](OC(C)C)(c2ccc(Cl)cc2)c2noc(=O)n21
10

I have this molecule here, C=CCOC1(c2ccc(Br)cc2)SC=C(C)n2c1noc2=O (stereo unspecified) , and I need its recorded Decrease.
13

Quick check: Decrease of CC1=CS[C@@](O)(c2ccc(Br)cc2)c2noc(=O)n21 ?
18

# input molecule: CC1=CSC(OC(C)C)(c2ccc(Br)cc2)c2noc(=O)n21 (stereo unspecified) ; wanted: its Decrease
4

# query: Decrease of entry CCCCCOC1(c2ccc(Br)cc2)SC=C(C)n2c1noc2=O (stereo unspecified)
2

Could you tell me which Decrease is on file for CCCCCOC1(c2ccc(Cl)cc2)SC=C(C)n2c1noc2=O (stereo unspecified) ?
14

* * *

- Species on record: Cavia porcellus
- test: Negative chronotropic activity was determined as percent decrease in the artial rate in spontaneously beating guinea pig artium at 5x10E-5 M (n=6-8)
attribute-measured: Decrease
Your reply should be a number followed by the unit it is expressed in.

Worked set:
>>> experimental_result("CC/C=C/COC1(c2ccc(Br)cc2)SC=C(C)n2c1noc2=O (stereo not given)")
"10%"
>>> experimental_result("C=CCOC1(c2ccc(Cl)cc2)SC=C(C)n2c1noc2=O (stereo not given)")
"13%"
>>> experimental_result("CCCCCCCCCCCCOC1(c2ccc(Cl)cc2)SC=C(C)n2c1noc2=O (stereo not given)")
"5%"
>>> experimental_result("CCCCCCCCCOC1(c2ccc(Cl)cc2)SC=C(C)n2c1noc2=O (stereo not given)")
"11%"

Then there is this compound:
Endpoint output: Decrease of CC1=CSC(OCc2ccccc2)(c2ccc(Cl)cc2)c2noc(=O)n21 (stereo not given) . Value?
5%
